experiment: Cytotoxicity against mock-infected BHK cells assessed as reduction in cell viability after 96 hrs by MTT assay; format: cell-based, Mesocricetus auratus; conditions: hamster

| COMPOUND | DISPLAY UNIT | MEASUREMENT QUALIFIER | CC50 at 96 h |
| --- | --- | --- | --- |
| O=c1cnn([C@@H]2O[C@H](CO)[C@@H](O)[C@H]2O)c(=O)[nH]1 [6-AZAURIDINE] | µM | > | 100 |
| CN1C=C(/N=N/c2cccc(C(F)(F)F)c2)CCC1 | µM | > | 100 |
| CN1CCC/C1=C\N=N\c1ccc(Br)c(C(F)(F)F)c1 | µM | > | 100 |
| C(=C\N1CCN(c2ccccc2)CC1)/N=N/c1ccccc1 | µM | = | 60 |
| C[C@@]1(O)[C@H](O)[C@@H](CO)O[C@H]1n1cnc2c(=O)[nH]c(N)nc21 [2'-B-METHYL-GUANOSINE] | µM | = | 90 |
| Clc1ccccc1N1CCN(/C=C/N=N/c2ccccc2)CC1 | µM | = | 69 |

* * *

test: Cytotoxicity against mock-infected african green monkey Vero76 cells assessed as reduction in cell viability after 96 hrs by MTT assay; assay type: cell-based, Vero; details: chlorocebus sabaeus
Reported values of CC50 at 96 h for individual entries

| MOLECULE SMILES | MEASUREMENT QUALIFIER | CC50 at 96 h, µM |
| --- | --- | --- |
| CN1CCC/C1=C\N=N\c1ccc(Cl)cc1 | = | 92 |
| FC(F)(F)c1cc(/N=N\C2=C3CCCCN3CCC2)ccc1Cl | > | 100 |
| CN1CCC/C1=C\N=N\c1ccc(F)cc1 | = | 75 |
| C(=C\N1CCN(c2ccccc2)CC1)/N=N/c1ccccc1 | = | 50 |
| CN1C=C(/N=N/c2ccc(Cl)c(Cl)c2)CCC1 | > | 100 |
| CN1C=C(/N=N/c2cccc3ccccc23)CCC1 | ≥ | 100 |
| Clc1ccccc1N1CCN(/C=C/N=N/c2ccccc2)CC1 | = | 14 |

* * *

experiment: Cytotoxicity against mock-infected african green monkey Vero76 cells assessed as reduction in cell viability after 96 hrs by MTT assay; format: cell-based, Vero; settings: chlorocebus sabaeus

| MOLECULE SMILES | DISPLAY UNIT | MEASUREMENT QUALIFIER | CC50 at 96 h |
| --- | --- | --- | --- |
| FC(F)(F)c1cc(/N=N/C2=CN(Cc3ccccc3)CCC2)ccc1Cl | µM | = | 48 |
| O=[N+]([O-])c1ccc(N2CCN(/C=C/N=N/c3ccccc3)CC2)cc1 | µM | = | 45 |
| CN1C=C(/N=N/c2ccc(Br)cc2)CCC1 | µM | = | 100 |
| CN1CCC/C1=C\N=N\c1cccc([N+](=O)[O-])c1 | µM | > | 100 |
| CN1C=C(/N=N/c2cc(C(F)(F)F)cc(C(F)(F)F)c2)CCC1 | µM | > | 100 |
| CN1C=C(/N=N/c2cccc(C(F)(F)F)c2)CCC1 | µM | > | 100 |

* * *

experiment: Cytotoxicity against mock-infected african green monkey Vero76 cells assessed as reduction in cell viability after 96 hrs by MTT assay; type: cell-based, Vero; settings: chlorocebus sabaeus
QUANTITY MEASURED: CC50 at 96 h

| MOLECULE SMILES | ENDPOINT VALUE |
| --- | --- |
| COc1ccc(N2CCN(/C=C/N=N/c3ccccc3)CC2)cc1 | 38 µM |
| CN1CCC/C1=C\N=N\c1ccccc1 | 82 µM |
| CN1CCC/C1=C\N=N\c1cccc(Br)c1 | 80 µM |
| Clc1ccccc1/N=N\C1=C2CCCCN2CCC1 | > 100 µM |
| CN1C=C(/N=N/c2ccccc2)CCC1 | ≥ 100 µM |
| Fc1ccccc1N1CCN(/C=C/N=N/c2ccccc2)CC1 | 34 µM |
| Brc1ccc(/N=N\C2=C3CCCCN3CCC2)cc1 | 92 µM |

* * *

assay: Cytotoxicity against mock-infected human MT4 cells assessed as reduction in cell viability after 96 hrs by MTT assay; assay type: cell-based
QUANTITY MEASURED: log10 CC50 at 96 h (log10 of the value in µM)

| MOLECULE SMILES | log10 CC50 at 96 h |
| --- | --- |
| Clc1ccc(/N=N/C=C2\CCCN2Cc2ccccc2)cc1 | 1.23 |
| Clc1ccccc1N1CCN(/C=C/N=N/c2ccccc2)CC1 | 1.20 |
| FC(F)(F)c1cc(/N=N\C2=C3CCCCN3CCC2)ccc1Cl | 1.28 |
| Cc1ccc(/N=N/C=C2\CCCN2Cc2ccccc2)cc1 | 1.00 |
| FC(F)(F)c1cc(/N=N\C2=C3CCCN3CCC2)ccc1Cl | 1.48 |
| O=[N+]([O-])c1ccc(/N=N\C2=C3CCCCN3CCC2)cc1 | 1.96 |
| C(=C\N1CCCC1)/N=N/c1ccccc1 | 0.90 |
| Clc1ccccc1/N=N\C1=C2CCCCN2CCC1 | 1.89 |
| FC(F)(F)c1cccc(/N=N\C2=C3CCCCN3CCC2)c1 | 0.60 |
| FC(F)(F)c1cccc(N2CCN(/C=C/N=N/c3ccccc3)CC2)c1 | 1.48 |
| Clc1ccc(/N=N\C2=C3CCCCN3CCC2)cc1 | 1.62 |
| O=[N+]([O-])c1cccc(/N=N\C2=C3CCCCN3CCC2)c1 | 1.57 |
| Clc1cccc(/N=N\C2=C3CCCCN3CCC2)c1 | 1.20 |
| Fc1ccc(/N=N\C2=C3CCCCN3CCC2)cc1 | 1.97 |
| Clc1cccc(N2CCN(/C=C/N=N/c3ccccc3)CC2)c1 | 1.28 |
| C(=C\N1CCN(c2ccccn2)CC1)/N=N/c1ccccc1 | 1.28 |
| Fc1ccccc1N1CCN(/C=C/N=N/c2ccccc2)CC1 | 1.51 |
| Clc1ccc(/N=N/C=C/N2CCCC2)cc1 | 1.79 |
| CCOC(=O)c1ccc(/N=N/C=C/N2CCCC2)cc1 | 1.41 |
| Clc1ccc(/N=N\C2=C3CCCN3CCC2)cc1Cl | 1.41 |

* * *

assay: Cytotoxicity against mock-infected human MT4 cells assessed as reduction in cell viability after 96 hrs by MTT assay; type: cell-based
QUANTITY MEASURED: CC50 at 96 h

| MOLECULE SMILES | QUANTITY MEASURED | ENDPOINT VALUE |
| --- | --- | --- |
| CN1/C(=C\N=N\c2ccc(Cl)cc2)C(C)(C)c2ccccc21 | CC50 at 96 h | 55 µM |
| CN1C=C(/N=N/c2ccc(Cl)cc2)CCC1 | CC50 at 96 h | > 100 µM |
| CN1C=C(/N=N/c2ccccc2Cl)CCC1 | CC50 at 96 h | > 100 µM |
| CN1C=C(/N=N/c2ccc(Cl)c(Cl)c2)CCC1 | CC50 at 96 h | 43 µM |
| CCOC(=O)N1CCN(/C=C/N=N/c2ccccc2)CC1 | CC50 at 96 h | 17 µM |
| CN1C=C(/N=N/c2ccc(Cl)c([N+](=O)[O-])c2)CCC1 | CC50 at 96 h | 71 µM |
| Fc1ccc(/N=N\C2=C3CCCCN3CCC2)cc1C(F)(F)F | CC50 at 96 h | 3 µM |
| COc1ccc(/N=N/C=C2\CCCN2C)cc1 | CC50 at 96 h | > 100 µM |
| O=[N+]([O-])c1cccc(/N=N\C2=C3CCCN3CCC2)c1 | CC50 at 96 h | > 100 µM |
| CN1CCC/C1=C\N=N\c1cccc(C(F)(F)F)c1 | CC50 at 96 h | 49 µM |
| Clc1ccc(/N=N\C2=C3CCCCN3CCC2)cc1Cl | CC50 at 96 h | 35 µM |
| Cc1ccc(/N=N/C=C2\CCCN2C)cc1 | CC50 at 96 h | > 100 µM |

* * *

Below, each entry is listed alongside its reported EC50.
tested on: Coxsackievirus B2; assay: Antiviral activity against CVB2 infected in Vero76 cells assessed as reduction in virus plaque formation after 4 days by MTT assay; format: functional, organism-based; details: Enterovirus B, Vero 76, 96 h

| MOLECULE SMILES | ASSAY TARGET | MEASUREMENT QUALIFIER | EC50 (µM) |
| --- | --- | --- | --- |
| Cc1ccc(/N=N/C=C2\CCCN2C)cc1 | Coxsackievirus B2 | = | 60 |
| Clc1cccc(/N=N\C2=C3CCCCN3CCC2)c1 | Coxsackievirus B2 | = | 22 |
| CN1C=C(/N=N/c2ccc(F)cc2)CCC1 | Coxsackievirus B2 | = | 53 |
| Fc1ccc(/N=N\C2=C3CCCCN3CCC2)cc1 | Coxsackievirus B2 | = | 27 |
| CN1C=C(/N=N/c2ccc(F)c(C(F)(F)F)c2)CCC1 | Coxsackievirus B2 | = | 35 |
| O=[N+]([O-])c1cc(/N=N\C2=C3CCCCN3CCC2)ccc1Cl | Coxsackievirus B2 | = | 51 |
| CN1C=C(/N=N/c2ccc([N+](=O)[O-])cc2)CCC1 | Coxsackievirus B2 | > | 100 |
| C[C@@]1(O)[C@H](O)[C@@H](CO)O[C@H]1n1cnc2c(=O)[nH]c(N)nc21 | Coxsackievirus B2 | = | 20 |
| CN1C=C(/N=N/c2ccc(Cl)c([N+](=O)[O-])c2)CCC1 | Coxsackievirus B2 | > | 100 |
| C(=C\N1CCCC1)/N=N/c1ccccc1 | Coxsackievirus B2 | = | 4 |
| Clc1ccc(/N=N/C=C2\CCCN2Cc2ccccc2)cc1 | Coxsackievirus B2 | = | 23 |
